The entries below are paired with their reported IC50.
TARGET ENTITY: KRAS G12S (Homo sapiens (Human), UniProt P01116+P62937, G12S)
Sequence (P01116-2 other isoform, or with tags, fused parts or gaps G12S, one chain of several): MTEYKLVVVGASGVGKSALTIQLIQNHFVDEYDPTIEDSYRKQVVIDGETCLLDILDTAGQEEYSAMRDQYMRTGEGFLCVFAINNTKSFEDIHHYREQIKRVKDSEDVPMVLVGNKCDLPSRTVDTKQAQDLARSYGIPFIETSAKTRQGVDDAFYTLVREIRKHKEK
PROTOCOL DETAILS: Ras-Raf (BRAF RBD) disruption / FRET / MOA assay, KRAS G12S
Format: biochemical
EXPERIMENTAL CONTEXT: Ras-Raf disruption/FRET/MOA assay; class symbols; read-out: KRAS G12S FRET data IC50

Reference set, count: 2
COMPOUND | IC50
C=CC(=O)N1CC[C@H](C(=O)N(C)[C@H](C(=O)N[C@H]2Cc3cc(O)cc(c3)-c3ccc4c(c3)c(c(-c3cncc(CN(C)C)c3)n4CC)CC(C)(C)COC(=O)[C@@H]3CCCN(N3)C2=O)C(C)C)C1 [Example A073] | 1 to 10 µM
CCn1c(-c2cccnc2[C@H](C)OC)c2c3cc(ccc31)-c1cccc(c1)C[C@H](NC(=O)[C@H](C(C)C)N1CC[C@@]3(CCN(C(=O)C#C[C@H]4COCCN4C4COC4)C3)C1=O)C(=O)N1CCC[C@H](N1)C(=O)OCC(C)(C)C2 (atropisomer, axis not shown) [Example A567] | 1 to 10 µM

Prompt: Fill in: IC50 of C=CC(=O)N1C[C@H](C)N(C(=O)N(C)[C@H](C(=O)N[C@H]2Cc3nc(cs3)-c3ccc4c(c3)c(c(-c3cccnc3[C@H](C)OC)n4CC)CC(C)(C)COC(=O)[C@@H]3CCCN(N3)C2=O)C(C)C)C[C@H]1C (atropisomer, axis not shown) [Example A430] is ___
Completion: 0.1 to 1 µM

Prompt: Fill in: IC50 of C=CC(=O)N1CC[C@H](C(=O)N(C)[C@H](C(=O)N[C@H]2Cc3cccc(c3)-c3ccc4c(c3)c(c(-c3cccnc3[C@H](C)OC)n4CC3COC3)CC(C)(C)COC(=O)[C@@H]3CCCN(N3)C2=O)C(C)C)C1 (atropisomer, axis not shown) [Example A481] is ___
Completion: 1 to 10 µM

Prompt: Fill in: IC50 of C=CC(=O)N1C[C@@H](C)[C@H](N(C)C(=O)N(C)[C@H](C(=O)N[C@H]2Cc3nc(cs3)-c3ccc4c(c3)c(c(-c3cccnc3[C@H](C)OC)n4CC)CC(C)(C)COC(=O)[C@@H]3CCCN(N3)C2=O)C(C)C)C1 (atropisomer, axis not shown) [Example A588] is ___
Completion: 1 to 10 µM

Prompt: Fill in: IC50 of CCn1c(-c2cccnc2[C@H](C)OC)c2c3cc(ccc31)-c1cccc(c1)C[C@H](NC(=O)[C@H](C(C)C)N1CC[C@]3(CCN(C(=O)C#C[C@@]4(N(C)C)CCOC4)C3)C1=O)C(=O)N1CCC[C@H](N1)C(=O)OCC(C)(C)C2 (atropisomer, axis not shown) [Example A560] is ___
Completion: 0.1 to 1 µM

Prompt: Fill in: IC50 of C=CC(=O)N1CCOC2(CCN(C(=O)N(C)[C@H](C(=O)N[C@H]3Cc4cccc(n4)-c4ccc5c(c4)c(c(-c4cccnc4[C@H](C)OC)n5CC(F)(F)F)CC(C)(C)COC(=O)[C@@H]4CCCN(N4)C3=O)C(C)C)CC2)C1 (atropisomer, axis not shown) [Example A607] is ___
Completion: 1 to 10 µM

---

TARGET ENTITY: KRAS G12V (Homo sapiens (Human), UniProt P01116+P62937, G12V)
Sequence (P01116-2 other isoform, or with tags, fused parts or gaps G12V, one chain of several): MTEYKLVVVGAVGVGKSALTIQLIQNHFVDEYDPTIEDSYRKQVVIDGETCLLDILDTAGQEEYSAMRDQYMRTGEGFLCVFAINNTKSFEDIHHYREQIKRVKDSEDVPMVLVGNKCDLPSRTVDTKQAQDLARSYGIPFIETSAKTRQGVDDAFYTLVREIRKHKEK
PROTOCOL DETAILS: Ras-Raf (BRAF RBD) disruption / FRET / MOA assay, KRAS G12V
Type: biochemical
EXPERIMENTAL CONTEXT: read-out: IC50* KRAS G12V FRET data
pIC50: −log10 of the molar value.
REPORTED METRIC: pIC50

Reference set, count: 2
COMPOUND | TARGET ENTITY | REPORTED METRIC | VALUE REPORTED
C=CC(=O)N1CC[C@H](C(=O)N(C)[C@H](C(=O)N[C@H]2Cc3cc(O)cc(c3)-c3ccc4c(c3)c(c(-c3cncs3)n4CC)CC(C)(C)COC(=O)[C@@H]3CCCN(N3)C2=O)C(C)C)C1 [Example A143] | KRAS G12V (Homo sapiens (Human), UniProt P01116+P62937, G12V) | pIC50 | 5.00 to 6.00
C=CC(=O)N1CC2(CCN2C(=O)N(C)[C@H](C(=O)N[C@H]2Cc3nc(cs3)-c3ccc4c(c3)c(c(-c3cccnc3[C@H](C)OC)n4CC)CC(C)(C)COC(=O)[C@@H]3CCCN(N3)C2=O)C(C)C)C1 (atropisomer, axis not shown) [Example A407] | KRAS G12V (Homo sapiens (Human), UniProt P01116+P62937, G12V) | pIC50 | 6.00 to 7.00

Prompt: Fill in: pIC50 of C=CC(=O)N1CC[C@H](C(=O)N(C)[C@H](C(=O)N[C@H]2Cc3cc(O)cc(c3)-c3ccc4c(c3)c(c(-c3ccc(CN(C)C)c(COC)c3)n4CC)CC(C)(C)COC(=O)[C@@H]3CCCN(N3)C2=O)C(C)C)C1 [Example A111] is ___
Completion: 5.00 to 6.00

Prompt: Fill in: pIC50 of C=C(OC)C(=O)N1CC2(CCN(C(=O)N(C)[C@H](C(=O)N[C@H]3Cc4nc(cs4)-c4ccc5c(c4)c(c(-c4cccnc4[C@H](C)OC)n5CC)CC(C)(C)COC(=O)[C@@H]4CCCN(N4)C3=O)C(C)C)CC2)C1 (atropisomer, axis not shown) [Example A681] is ___
Completion: 6.00 to 7.00

---

TARGET ENTITY: KRAS WT (Homo sapiens (Human), UniProt P01116+P62937)
Sequence (P01116-2 other isoform, or with tags, fused parts or gaps, one chain of several): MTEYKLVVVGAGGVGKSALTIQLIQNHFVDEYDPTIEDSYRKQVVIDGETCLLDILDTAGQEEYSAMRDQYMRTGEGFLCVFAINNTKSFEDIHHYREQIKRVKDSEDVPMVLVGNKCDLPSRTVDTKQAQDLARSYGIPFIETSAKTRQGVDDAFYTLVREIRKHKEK
PROTOCOL DETAILS: Ras-Raf (BRAF RBD) disruption / FRET / MOA assay, KRAS WT
Assay type: biochemical
EXPERIMENTAL CONTEXT: read-out: IC50* KRAS WT FRET data
The entries below are paired with their reported IC50.

Reference set, count: 3
COMPOUND | VALUE REPORTED
CCn1c(-c2cccnc2[C@H](C)OC)c2c3cc(ccc31)-c1csc(n1)C[C@H](NC(=O)CCO[C@@H]1CCN(C(=O)C#CC(C)(C)N3CCC3)C1)C(=O)N1CCC[C@H](N1)C(=O)OCC(C)(C)C2 (atropisomer, axis not shown) | 1000 to 10000 nM
C=CC(=O)N1C[C@@H]2CN(C(=O)N(C)[C@H](C(=O)N[C@H]3Cc4nc(cs4)-c4ccc5c(c4)c(c(-c4cccnc4[C@H](C)OC)n5CC)CC(C)(C)COC(=O)[C@@H]4CCCN(N4)C3=O)C(C)C)C[C@@H]2C1 (atropisomer, axis not shown) | 10 to 100 nM
C=CC(=O)N1C[C@@H]2[C@H](C1)[C@@H]2C(=O)N(C)[C@H](C(=O)N[C@H]1Cc2cc(O)cc(c2)-c2ccc3c(c2)c(c(-c2cccnc2[C@H](C)OC)n3CC)CC(C)(C)COC(=O)[C@@H]2CCCN(N2)C1=O)C(C)C (atropisomer, axis not shown) | 10 to 100 nM

Now turn to the next compound.
Prompt: Fill in: IC50 of CCn1c(-c2cccnc2[C@H](C)OC)c2c3cc(ccc31)-c1cccc(c1)C[C@H](NC(=O)[C@H](C1CCCC1)N(C)C(=O)[C@@H]1CN(C(=O)C#CC(C)(C)N(C)C)C[C@@H]1C)C(=O)N1CCC[C@H](N1)C(=O)OCC(C)(C)C2 (atropisomer, axis not shown) is ___
Completion: 1000 to 10000 nM

---

TARGET ENTITY: K-Ras G12C (Homo sapiens (Human), UniProt P01116+P62937, G12C)
Sequence (P01116-2 other isoform, or with tags, fused parts or gaps G12C): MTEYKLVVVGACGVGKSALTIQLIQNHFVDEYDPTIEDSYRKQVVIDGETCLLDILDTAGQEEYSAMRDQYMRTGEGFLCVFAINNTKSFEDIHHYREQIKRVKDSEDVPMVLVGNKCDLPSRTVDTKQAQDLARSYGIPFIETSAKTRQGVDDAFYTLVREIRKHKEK
Sequence (P62937 whole entry): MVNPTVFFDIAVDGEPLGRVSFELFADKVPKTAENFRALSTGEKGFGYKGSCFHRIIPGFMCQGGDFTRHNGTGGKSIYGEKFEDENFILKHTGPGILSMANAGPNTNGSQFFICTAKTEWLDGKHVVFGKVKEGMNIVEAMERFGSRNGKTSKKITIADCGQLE
PROTOCOL DETAILS: Ras-Raf (BRAF RBD) disruption / FRET / MOA assay, KRAS G12C
Format: biochemical
EXPERIMENTAL CONTEXT: KRAS G12C; Ras-Raf disruption/FRET/MOA assay; read-out: IC50* KRAS G12C FRET data
pIC50: −log10 of the molar value.
REPORTED METRIC: pIC50

COMPOUND | TARGET ENTITY | REPORTED METRIC | VALUE REPORTED
C=CC(=O)N1CCN(C(=O)N(C)[C@H](C(=O)N[C@H]2Cc3nc(cs3)-c3ccc4c(c3)c(c(-c3cccnc3[C@H](C)OC)n4CC)CC(C)(C)COC(=O)[C@@H]3CCCN(N3)C2=O)C(C)C)CC1 (atropisomer, axis not shown) | K-Ras G12C (Homo sapiens (Human), UniProt P01116+P62937, G12C) | pIC50 | 7.00 to 8.00

Now turn to the next compound.
Prompt: Fill in: pIC50 of C=CC(=O)N1CCO[C@@H]2CN(C(=O)N(C)[C@H](C(=O)N[C@H]3Cc4nc(cs4)-c4ccc5c(c4)c(c(-c4cccnc4[C@H](C)OC)n5CC)CC(C)(C)COC(=O)[C@@H]4CCCN(N4)C3=O)C(C)C)C[C@@H]21 (atropisomer, axis not shown) is ___
Completion: 6.00 to 7.00
